STUDY_TARGET: Human HER3, endogenous, on human cancer cell lines (SK-Br-3, MCF7, BT-474) (human, UniProt P21860 20-1342)
Sequence (P21860 20-1342): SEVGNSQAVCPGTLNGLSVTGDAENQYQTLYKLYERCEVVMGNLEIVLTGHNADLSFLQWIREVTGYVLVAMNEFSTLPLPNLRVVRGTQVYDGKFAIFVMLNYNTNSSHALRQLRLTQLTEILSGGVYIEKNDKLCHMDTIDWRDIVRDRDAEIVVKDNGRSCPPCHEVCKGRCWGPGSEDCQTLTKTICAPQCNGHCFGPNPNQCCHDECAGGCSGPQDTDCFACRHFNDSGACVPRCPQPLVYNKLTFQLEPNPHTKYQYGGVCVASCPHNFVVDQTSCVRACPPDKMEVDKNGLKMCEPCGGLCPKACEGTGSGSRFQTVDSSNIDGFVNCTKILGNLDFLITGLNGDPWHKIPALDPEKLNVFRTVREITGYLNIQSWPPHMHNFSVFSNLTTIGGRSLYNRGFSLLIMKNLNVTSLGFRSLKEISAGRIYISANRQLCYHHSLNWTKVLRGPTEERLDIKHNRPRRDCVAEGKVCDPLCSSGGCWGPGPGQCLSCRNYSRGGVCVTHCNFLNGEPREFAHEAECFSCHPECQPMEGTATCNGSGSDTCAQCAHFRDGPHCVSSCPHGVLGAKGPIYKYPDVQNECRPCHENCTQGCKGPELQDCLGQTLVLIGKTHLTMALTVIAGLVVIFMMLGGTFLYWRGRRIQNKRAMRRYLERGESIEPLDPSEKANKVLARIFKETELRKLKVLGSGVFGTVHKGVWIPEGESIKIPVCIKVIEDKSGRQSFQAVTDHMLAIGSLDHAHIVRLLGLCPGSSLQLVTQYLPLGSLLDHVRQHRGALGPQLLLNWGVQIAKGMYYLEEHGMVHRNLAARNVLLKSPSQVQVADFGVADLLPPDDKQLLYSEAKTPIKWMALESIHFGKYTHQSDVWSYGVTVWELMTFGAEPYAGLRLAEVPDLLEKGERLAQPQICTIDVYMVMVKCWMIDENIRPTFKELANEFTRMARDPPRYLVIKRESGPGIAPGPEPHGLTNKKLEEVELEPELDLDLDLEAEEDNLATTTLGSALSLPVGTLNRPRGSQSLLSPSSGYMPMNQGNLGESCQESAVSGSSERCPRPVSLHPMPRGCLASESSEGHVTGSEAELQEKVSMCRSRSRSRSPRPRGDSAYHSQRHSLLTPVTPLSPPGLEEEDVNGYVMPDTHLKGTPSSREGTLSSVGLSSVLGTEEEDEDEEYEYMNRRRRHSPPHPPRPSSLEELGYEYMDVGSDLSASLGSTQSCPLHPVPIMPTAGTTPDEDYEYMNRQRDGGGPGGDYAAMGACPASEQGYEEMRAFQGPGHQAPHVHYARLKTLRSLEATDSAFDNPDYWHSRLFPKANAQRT
ASSAY_PROTOCOL: cell-based or functional assay
PROPERTY_NAME: BT-474 proliferation IC50 (nM)
Kindly provide the numeric value in nM only, without the unit symbol.

// solved cases for BT-474 proliferation IC50 follow
[
  {
    "BINDER": "MOR13766 (antibody, human IgG1, kappa, V domains shown, tested as IgG) VH: QVQLVQSGAEVKKPGESLKISCKGSGYSFTTTWVAWVRQMPGKGLEWMGIIYPGSSDTIYSPSFQGQVTISADKSISTAYLQWSSLKASDTAMYYCARVHIIQPPSAWSYNAMDVWGQGTLVTVSS VL: DIQMTQSPSSLSASVGDRVTITCRASQSISTYLNWYQQKPGKAPKLLIFGASNLQSGVPSRFSGSGSGTDFTLTISSLQPEDFATYYCQQSITELFTFGQGTKVEIKR",
    "UNITS_OF_MEASURE": "nM",
    "BT-474 proliferation IC50": 2.56
  },
  {
    "BINDER": "MOR12616 (antibody, human IgG1, kappa, V domains shown, tested as IgG) VH: QVQLVQSGAEVKKPGESLKISCKGSGYSFTNSWVAWVRQMPGKGLEWMGIIYPGNSDTIYSPSFQGQVTISADKSISTAYLQWSSLKASDTAMYYCARVHIIQPPSAWSYNAMDVWGQGTLVTVSS VL: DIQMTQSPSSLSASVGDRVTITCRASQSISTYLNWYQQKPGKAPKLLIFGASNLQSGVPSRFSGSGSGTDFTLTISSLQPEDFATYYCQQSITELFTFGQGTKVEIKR",
    "UNITS_OF_MEASURE": "nM",
    "BT-474 proliferation IC50": 0.635
  },
  {
    "BINDER": "MOR13768 (antibody, human IgG1, kappa, V domains shown, tested as IgG) VH: QVQLVQSGAEVKKPGESLKISCKGSGYSFTSSWVAWVRQMPGKGLEWMGIIYPGQSDTIYSPSFQGQVTISADKSISTAYLQWSSLKASDTAMYYCARVHIIQPPSAWSYNAMDVWGQGTLVTVSS VL: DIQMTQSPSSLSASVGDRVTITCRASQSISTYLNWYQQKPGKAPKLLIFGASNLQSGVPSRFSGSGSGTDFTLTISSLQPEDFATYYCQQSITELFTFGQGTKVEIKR",
    "UNITS_OF_MEASURE": "nM",
    "BT-474 proliferation IC50": 1.21
  }
]

## Input Consider the binder MOR12925 (antibody, human IgG1, kappa, V domains shown, tested as IgG) VH: QVQLVQSGAEVKKPGESLKISCKGSGYSFSNYWIAWVRQMPGKGLEWMGIIYPGNSDTIYSPSFQGQVTISADKSISTAYLQWSSLKASDTAMYYCARVHIIQPPSAWSYNAMDVWGQGTLVTVSS VL: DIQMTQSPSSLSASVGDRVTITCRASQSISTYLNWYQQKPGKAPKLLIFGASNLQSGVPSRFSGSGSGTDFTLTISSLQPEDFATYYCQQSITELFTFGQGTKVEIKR and give its recorded BT-474 proliferation IC50.
## Output 0.522

## Input Consider the binder MOR13870 (antibody, human IgG1, kappa, V domains shown, tested as IgG) VH: QVQLVQSGAEVKKPGESLKISCKGSGYSFSNYWIAWVRQMPGKGLEWMGIIYPGTSDTIYSPSFQGQVTISADKSISTAYLQWSSLKASDTAMYYCARVHIIQPPSAWSYNAMDVWGQGTLVTVSS VL: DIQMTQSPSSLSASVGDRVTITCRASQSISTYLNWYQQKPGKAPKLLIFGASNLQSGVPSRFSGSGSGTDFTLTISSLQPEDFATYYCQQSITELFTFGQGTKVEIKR and give its recorded BT-474 proliferation IC50.
## Output 0.539
